test system: LPS-induced microglia activation; assay: Image-based assay of LPS-induced microglia activation (HTS and dose response); assay type: cell-based, rat; details: primary microglia HTS, LPS stimulation; increased cell size (>800 μm^2) as marker of activation
Counter-ions that a name gives are not always drawn.
measured.attribute: LPS % inhibition
Number plus unit, in that order.

CCN(CC)CCNC(=O)COc1ccc(OC)cc1 [Mefexamide, Mefexamide Hydrochloride]; −2%

Recorded LPS % inhibition (compound C[n+]1cc2c3c(ccc2c2ccc4cc5c(cc4c21)OCO5)OCO3 ): 101%

Recorded LPS % inhibition (compound COc1cccc2c1C(=O)c1c(O)c3c(c(O)c1C2=O)C[C@@](O)(C(=O)CO)C[C@@H]3O[C@H]1C[C@H](N)[C@@H](O)[C@H](C)O1 [Epirubicin, Epirubicin Hydrochloride] ): 123%

Recorded LPS % inhibition (compound C=C1c2c(Cl)ccc(O)c2C(=O)C2=C(O)[C@]3(O)C(=O)C(C(N)=O)=C(O)[C@@H](N(C)C)[C@@H]3[C@@H](O)[C@H]12.O=C(O)c1cc(S(=O)(=O)O)ccc1O [Meclocycline Sulfosalicylate] ): 18%

Recorded LPS % inhibition (compound Cc1c(N(C)CS(=O)(=O)[O-])c(=O)n(-c2ccccc2)n1C.[Na+] ): 101%

Recorded LPS % inhibition (compound Cc1onc(-c2ccccc2)c1C(=O)N[C@@H]1C(=O)N2[C@@H]1SC(C)(C)[C@@H]2C(=O)[O-].[Na+] [Oxacillin Sodium] ): 11%

Recorded LPS % inhibition (compound COc1ccnc(C[S+]([O-])c2nc3cc(OC(F)F)ccc3[n-]2)c1OC.[Na+] (stereo not shown) [Pantoprazole, Pantoprazole Sodium Salt] ): −1%

Recorded LPS % inhibition (compound N=C(NCCCCCCNC(=N)NC(=N)Nc1ccc(Cl)cc1)NC(=N)Nc1ccc(Cl)cc1 ): 69%

Recorded LPS % inhibition (compound COc1cc(/C=C/C(=O)N2CCCCCCC2)cc(OC)c1OC [Cinoctramide] ): 53%

Recorded LPS % inhibition (compound COC(C)(C)CCC[C@H](C)C/C=C/C(C)=C/C(=O)OC(C)C [Methoprene (s)] ): 12%
